- Test system: human platelet aggregation
- experiment: Platelet aggregation in vitro in platelet rich plasma
- Type: cell-based
- particulars: Homo sapiens, Platelet, ADP at 2 µM, human PRP; read-out: Antiaggregatory IC50 (µM) vs. ADP
parameter: IC50 (µM)
Response body: numeric value in µM, unit text excluded.

Ask | What value of measured IC50 is listed for CC1CC(=O)NN=C1c1ccc2c(c1)OCC(=O)N2 (racemic) [Example 46] ?
Reply | 0.65

* * *

Listed here: items and their measured pIC50.
- assay target: canine cardiac cyclic nucleotide phosphodiesterase (PDE) fraction III (Canis lupus familiaris, UniProt A0A8I3NYE0)
- Construct: The fraction III isoenzyme was pooled and dialyzed; from tissue; host or cells: canine heart, soluble supernatant, DEAE cellulose fraction III (800 mM sodium acetate eluate)
- Sequence (A0A8I3NYE0 1-1135): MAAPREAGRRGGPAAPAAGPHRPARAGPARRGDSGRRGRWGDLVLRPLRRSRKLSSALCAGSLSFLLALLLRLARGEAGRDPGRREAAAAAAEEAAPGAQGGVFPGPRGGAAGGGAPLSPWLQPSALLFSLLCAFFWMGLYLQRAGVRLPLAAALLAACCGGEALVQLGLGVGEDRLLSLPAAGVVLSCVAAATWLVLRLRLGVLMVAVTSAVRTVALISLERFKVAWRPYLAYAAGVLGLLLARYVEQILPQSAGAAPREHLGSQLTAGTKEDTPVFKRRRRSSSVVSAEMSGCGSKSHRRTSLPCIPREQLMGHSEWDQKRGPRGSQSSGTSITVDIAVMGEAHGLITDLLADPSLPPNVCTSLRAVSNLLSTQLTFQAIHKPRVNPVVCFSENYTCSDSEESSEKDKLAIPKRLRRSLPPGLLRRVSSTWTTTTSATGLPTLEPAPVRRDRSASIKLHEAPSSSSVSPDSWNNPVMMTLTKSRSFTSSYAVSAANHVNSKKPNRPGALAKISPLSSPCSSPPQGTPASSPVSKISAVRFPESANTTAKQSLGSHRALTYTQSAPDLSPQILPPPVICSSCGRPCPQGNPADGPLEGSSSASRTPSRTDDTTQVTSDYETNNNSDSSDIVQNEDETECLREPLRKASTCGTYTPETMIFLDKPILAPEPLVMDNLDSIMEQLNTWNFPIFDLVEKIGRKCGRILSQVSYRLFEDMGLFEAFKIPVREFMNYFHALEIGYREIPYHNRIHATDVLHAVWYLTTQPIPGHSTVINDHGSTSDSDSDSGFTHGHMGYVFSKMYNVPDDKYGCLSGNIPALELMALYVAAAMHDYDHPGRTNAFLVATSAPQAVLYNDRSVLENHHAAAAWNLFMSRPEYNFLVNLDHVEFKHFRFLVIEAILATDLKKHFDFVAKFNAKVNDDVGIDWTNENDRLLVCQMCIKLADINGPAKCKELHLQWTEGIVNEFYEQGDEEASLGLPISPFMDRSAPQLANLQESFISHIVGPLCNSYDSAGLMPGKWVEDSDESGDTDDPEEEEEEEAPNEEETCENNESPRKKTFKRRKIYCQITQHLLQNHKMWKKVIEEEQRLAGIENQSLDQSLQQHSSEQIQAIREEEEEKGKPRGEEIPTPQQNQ
- experiment: Cyclic AMP phosphodiesterase assay with fraction III isoenzyme, comparative testing
- Assay type: biochemical
- particulars: canine heart fraction III, 0.1 µM cyclic AMP; read-out: PDE III IC50
In plain terms, pIC50 is the concentration in mol/L turned into minus its base-10 logarithm.

>  <compound>
CC1CC(=O)NN=C1c1ccc2c(c1)OCC(=O)N2 (racemic) [Example 46]

>  <pIC50>
6.15

$$$$
>  <compound>
CC1CC(=O)NN=C1c1ccc2c(c1)OCC(=O)N2 (single isomer, unassigned; isomer 6) [(+) isomer]

>  <pIC50>
5.10

$$$$

Could you now look at the following compound, please?
Ask | What value of measured pIC50 is listed for CC1CC(=O)NN=C1c1ccc2c(c1)OCC(=O)N2 (single isomer, unassigned; isomer 6) [(-) isomer] ?
Reply | 6.74
